Test system: HCT-15
Assay: Cytotoxicity against human HCT15 cells assessed as inhibition of cell growth incubated for 72 hrs by SRB assay
Assay type: functional
Conditions: Homo sapiens, HCT-15, 72 h
// reported GI50 for each item listed
Numbers only; they are read as µM.

Answered cases to consult:
>>> experimental_value("COc1ccc(-c2cc(-c3ccc(Cl)cc3)nc3cnc4ccccc4c23)cc1")
4.82
>>> experimental_value("COc1ccc(-c2cc(-c3cccc4ccccc34)nc3cnc4ccccc4c23)cc1")
2.72
>>> experimental_value("COc1cccc2c1C(=O)c1c(O)c3c(c(O)c1C2=O)C[C@@](O)(C(=O)CO)C[C@@H]3O[C@H]1C[C@H](N)[C@H](O)[C@H](C)O1")
0.077

Endpoint output: GI50 of COc1ccc(-c2cc(-c3cccc(C#N)c3)nc3cnc4ccccc4c23)cc1 . Value?
1.79
